Tested on: LPS-induced TNFα release in human blood
assay: LPS-induced TNFα release in human blood
Format: cell-based
cond: human blood diluted 1:5, LPS 10 μg/ml, 24 hours
compounds and their reported IC50

compound | result
COc1ccc([C@]2(C#N)CC[C@@H](C(=O)O)CC2)cc1OC1CCCC1 [SB 207499, reference compound] | 7 µM

Write down the reported IC50 of "O=C(Nc1c(Cl)cncc1Cl)C(=O)c1cn(Cc2ccc(F)cc2)c2ccc(O)cc12" , test system: LPS-induced TNFα release in human blood.
0.8 µM

====

molecules and their reported melting point

Some solved cases for reference:
smilesText | melting point
O=C(Nc1c(Cl)cncc1Cl)C(=O)c1cn(Cc2c(F)cccc2F)c2ccc(O)cc12 | 266 to 268 °C
COc1ccc(Cn2cc(C(=O)Nc3c(Cl)cncc3Cl)c3cc(O)ccc32)cc1 | 239 to 241 °C
O=C(Nc1c(Cl)cc(OC(F)(F)F)cc1Cl)C(=O)c1cn(Cc2ccc(F)cc2)c2ccc(O)cc12 | 176 to 178 °C

Returns the measured melting point for the input molecule. Input: "CCCn1cc(C(=O)C(=O)Nc2c(Cl)cncc2Cl)c2cc(O)ccc21"
280 to 282 °C

Returns the measured melting point for the input molecule. Input: "O=C(Nc1c(Cl)cccc1Cl)C(=O)c1cn(Cc2ccc(F)cc2)c2ccc(O)cc12"
216 to 218 °C

Returns the measured melting point for the input molecule. Input: "O=C(Nc1c(Cl)cc(C(F)(F)F)cc1Cl)C(=O)c1cn(Cc2ccc(F)cc2)c2ccc(O)cc12"
199 to 201 °C
